Some molecules, each annotated with its measured GI50.
Test system: UACC-257
test: NCI tumour cell line growth inhibition, 48 h
Active and inactive are the calls of the source. No stated cut-off is given here; in the data, active = GI50 up to about 1.1 µM and inactive = higher.

{"columns": ["molecule", "reportedProperty", "measurement"],
 "data": [
  ["COC(=O)C(Cc1ccccc1)NC(=O)CSc1nnc(COc2ccc(Cl)cc2)n1-c1ccccc1 (stereo not drawn)", "GI50", "13.1 µM (inactive)"]
]}

### Prompt Report measured GI50 on UACC-257; entry: O=C1C=C(O)C(=Cc2c(O)cc(O)cc2O)C(O)=C1
### Response > 100 µM (inactive)

* * *

Test system: HOP-92
test: NCI tumour cell line growth inhibition, 48 h
The source made the active and inactive calls. Cut-off read from the data, not from the text of the source: active = GI50 up to about 1.1 µM and inactive = higher. Where a SMILES comes first, the peptide text is derived from it. The star is where a group is joined. Boc = CC(C)(C)OC(=O)*; OBn = c1ccc(CO*)cc1
reportedProperty: GI50

Worked examples follow.
{"columns": ["molecule", "GI50"],
 "data": [
  ["CC(C)Oc1ccc2c(c1)OCC1Cc3ccccc3OC21 (configuration not stated)", "> 100 µM (inactive)"],
  ["C=C(C)C(O)CCC1(C)C=Cc2c(c(C)cc3c2[nH]c2ccccc23)O1 (configuration not stated)", "7.01 µM (inactive)"],
  ["CC(C)CC(NC(=O)OC(C)(C)C)C(=O)N1CCCC1C(=O)OCc1ccccc1 (stereo not drawn) (Boc-Leu-Pro-OBn; configuration not given here)", "> 100 µM (inactive)"],
  ["CC1=NNC(=O)[C@H]2[C@H]1CCC1[C@@H]2CC[C@]2(C)[C@@H](O)CC[C@@H]12 (some centres not stated)", "> 100 µM (inactive)"],
  ["COc1cc2c3cc1Oc1c(OC)c(OC)cc4c1C(Cc1ccc(O)c(c1)-c1cc(ccc1OC)CC3N(C)CC2)N(C)CC4 (configuration not stated)", "20.2 µM (inactive)"]
]}

### Prompt Report measured GI50 on HOP-92; entry: O=C(O)c1cc2c(cc1S(=O)(=O)O)C1C(C3C2C2(Cl)C(Cl)=C(Cl)C3(Cl)C2(Cl)Cl)C2(Cl)C(Cl)=C(Cl)C1(Cl)C2(Cl)Cl (configuration not stated)
### Response 29.2 µM (inactive)

### Prompt Report measured GI50 on HOP-92; entry: CCCC(=O)Nc1cn(COC)c(C(=O)N2C[C@@H]3C[C@]34C2=CC(=O)c2[nH]cc(C)c24)n1
### Response 9.31 µM (inactive)

* * *

Test system: NCI-H460
test: NCI tumour cell line growth inhibition, 48 h
Active and inactive are the calls of the source. No stated cut-off is given here; in the data, active = GI50 up to about 1.1 µM and inactive = higher.
reportedProperty: GI50

Worked examples follow.
{"columns": ["compound", "reportedProperty", "measurement"],
 "data": [
  ["CCCc1c2c3ccccc3nc-2nc2ccccn12", "GI50", "32.8 µM (inactive)"],
  ["O=S(=O)(c1ccccc1)n1c(C(O)c2ccncc2)cc2ccccc21 (configuration not stated)", "GI50", "26.2 µM (inactive)"],
  ["COc1cccc(Cc2cc(=O)c3ccc(C)nc3[nH]2)c1", "GI50", "> 100 µM (inactive)"],
  ["O=C(O)c1ccccc1CN1CCCC(C(=O)O)C1 (configuration not stated)", "GI50", "> 100 µM (inactive)"]
]}

### Prompt Return GI50 (reported value) for this compound: C[N+]1(CCN=C=NC2CCCCC2)CCOCC1
### Response > 100 µM (inactive)

### Prompt Return GI50 (reported value) for this compound: CC(C)C(=O)/C=C/c1ccc(Cl)cc1Cl
### Response 11.3 µM (inactive)

### Prompt Return GI50 (reported value) for this compound: c1csc(-c2csc(-c3cccs3)c2)c1
### Response 88.3 µM (inactive)

### Prompt Return GI50 (reported value) for this compound: CCOC(=O)c1c(C)cc(=O)n2c1[nH]c1ccccc12
### Response 14.1 µM (inactive)

* * *

Tested on: M14
test: NCI tumour cell line growth inhibition, 48 h
Active and inactive are the calls of the source. Cut-off read from the data, not from the text of the source: active = GI50 up to about 1.1 µM and inactive = higher.
Pick from 1 for active, -1 for inactive when you respond.

### Prompt Any idea what this test logged for Nc1nc(=S)n(-c2ccc(Cl)cc2)c2nc3ccccc3cc12 ?
### Response -1

### Prompt Any idea what this test logged for C/C=C(/C)C(=O)O[C@H]1[C@H](O)CC(c2ccc3c(c2O)C(=O)C2=C(O)C4(OC)C(=O)C(C(N)=O)=C(O)[C@H](CC(=O)c5ccccc5O)C4CC2[C@@]3(C)OC)O[C@@H]1C (some centres undefined) ?
### Response 1

### Prompt Any idea what this test logged for CCOC(=O)C(=O)/C(=C/NC(=S)c1ccncc1)C(=O)OCC ?
### Response -1

### Prompt Any idea what this test logged for COc1cc(NC(C)CCCN)c2nccc(C)c2c1 (centres undefined) ?
### Response -1

### Prompt Any idea what this test logged for Cc1cccc(C)c1N1C(=O)C(=O)C(c2nc3ccccc3s2)/C(=N\N)C1=O (centres undefined) ?
### Response -1

### Prompt Any idea what this test logged for O=C1C=C2CCCC2C(C(=O)O)(C(=O)O)C1 (centres undefined) ?
### Response -1

### Prompt Any idea what this test logged for COc1cc2ncnc(Nc3cccc(Cl)c3)c2cc1OC ?
### Response -1

### Prompt Any idea what this test logged for CC(O)CCCOC(c1ccccc1)(c1ccccc1)c1ccccc1 (centres undefined) ?
### Response -1

### Prompt Any idea what this test logged for COC(=O)c1c(O)ccc2c1c1c(n2Cc2ccc(OC)cc2)C(=O)c2ccccc2C1=O ?
### Response -1

* * *

Test system: M14
test: NCI tumour cell line growth inhibition, 48 h
Activity calls are given as the source filed them. Cut-off read from the data, not from the text of the source: active = GI50 up to about 1.1 µM and inactive = higher.
Pick from 1 for active, -1 for inactive when you respond.

{"columns": ["molecule", "cat"],
 "data": [
  ["CCc1c(-c2ccc(OC)cc2)c(=O)oc2cc(O)ccc12", -1],
  ["C[N+]1(CCNP(=S)(NCC[N+]2(C)Cc3c(ccc4c3OCO4)C3C2c2cc4c(cc2C[C@@H]3O)OCO4)NCC[N+]2(C)Cc3c(ccc4c3OCO4)C3C2c2cc4c(cc2C[C@@H]3O)OCO4)Cc2c(ccc3c2OCO3)C2C1c1cc3c(cc1C[C@H]2O)OCO3 (stereo partly specified)", 1],
  ["Oc1ccc(Oc2cc3c(cc2Oc2ccc(O)cc2)-c2nc-3nc3[nH]c(nc4nc(nc5[nH]c(n2)c2cc(Oc6ccc(O)cc6)c(Oc6ccc(O)cc6)cc52)-c2cc(Oc5ccc(O)cc5)c(Oc5ccc(O)cc5)cc2-4)c2cc(Oc4ccc(O)cc4)c(Oc4ccc(O)cc4)cc32)cc1", -1],
  ["O=C(/C=C1/Nc2ccc([N+](=O)[O-])cc2N/C1=C/C(=O)c1ccccc1)c1ccccc1", -1]
]}

### Prompt Any idea what this test logged for C=C(CCC(=O)N(CCc1c[nH]c2ccccc12)C(=O)c1ccccc1CSCC)C(=O)OC ?
### Response -1

### Prompt Any idea what this test logged for CCOC(=O)/C(C#N)=C/c1coc2cc(C)cc(C)c2c1=O ?
### Response -1

* * *

System: CCRF-CEM
test: NCI tumour cell line growth inhibition, 48 h
The source made the active and inactive calls. Cut-off read from the data, not from the text of the source: active = GI50 up to about 1.1 µM and inactive = higher.
Pick from T for active, F for inactive when you respond.

For orientation, consider the following solved cases.
{"columns": ["compound", "cat"],
 "data": [
  ["C=CCCCCCCCCCOC1C=CC(OC(C)=O)C(COC(C)=O)O1 (configuration not stated)", "F"],
  ["COc1ccc2c(c1)[nH]c1c3ccc(OC)cc3oc(=O)c21", "F"],
  ["CCCC(=O)Nc1ccc(O)c2c1C1CCCCCC21 (configuration not stated)", "F"],
  ["O=C1CC2CC(CC3(CO3)C2)C1F (configuration not stated)", "F"]
]}

### Prompt Any idea what this test logged for NC(=O)SCC(=O)Nc1ccc2ncccc2c1 ?
### Response F

### Prompt Any idea what this test logged for CSC(C1c2ccccc2N(c2ccc(C)cc2)c2[nH]c(=O)n(C)c(=O)c21)S(=O)(=O)c1ccc(C)cc1 (configuration not stated) ?
### Response F

### Prompt Any idea what this test logged for c1cc(-c2ccc(Oc3ccc(-c4ccncc4)cc3)cc2)ccn1 ?
### Response F

### Prompt Any idea what this test logged for C=CC1ON(C)CCc2cc(OC)c(OC)cc21 (configuration not stated) ?
### Response F

### Prompt Any idea what this test logged for COc1ccc(/C=C2\C(=O)N(C3OC(COC(C)=O)C(OC(C)=O)C(OC(C)=O)C3OC(C)=O)c3ccccc3N=C2N)cc1 (configuration not stated) ?
### Response F

### Prompt Any idea what this test logged for O=C(NCP(=O)(Oc1ccccc1)Oc1ccccc1)OCc1ccccc1 ?
### Response F

### Prompt Any idea what this test logged for CC(C)OP(=O)(OC(C)C)/C(=N/Nc1ccc([N+](=O)[O-])cc1)Nc1ccc(N/C(=N\Nc2ccc([N+](=O)[O-])cc2)P(=O)(OC(C)C)OC(C)C)cc1 ?
### Response F

### Prompt Any idea what this test logged for COC(=O)NC1(NC(=O)OC)NC(=O)c2cc(OC)c(OC)cc2N1 ?
### Response F

### Prompt Any idea what this test logged for N#CC(C#N)=C/C=C/c1c(Cl)cccc1Cl ?
### Response F

### Prompt Any idea what this test logged for Cc1nc2c(-c3ccccc3)[nH]c(C)c2c(=O)o1 ?
### Response F

### Prompt Any idea what this test logged for CN(C)/C=N/S(=O)(=O)c1nn2c(C=O)c(-c3ccc(-c4ccccc4)cc3)nc2s1 ?
### Response T

### Prompt Any idea what this test logged for COc1cc(C(C)c2cc3c(cc2OCCN)OCO3)cc(OC)c1OC (configuration not stated) ?
### Response F

### Prompt Any idea what this test logged for O=C1C(c2ccccc2)=[N+]([O-])c2ccccc21 ?
### Response F

### Prompt Any idea what this test logged for O=C1C=C(N2CCN(CCOCCO)CC2)C(=O)c2c(O)ccc(O)c21 ?
### Response F

### Prompt Any idea what this test logged for O=C1C(Cl)C(c2cccc([N+](=O)[O-])c2)N1n1cnc2ccccc2c1=O (configuration not stated) ?
### Response F

### Prompt Any idea what this test logged for COc1ccc(N2C(=O)C3c4[nH]c5ccc(OC)cc5c4C4CCC(C(C)(C)C)CC4C3C2=O)cc1 (configuration not stated) ?
### Response F

### Prompt Any idea what this test logged for COc1ccc2c(c1)CCN1CCCc3ccc(OC)cc3C21 (configuration not stated) ?
### Response F

### Prompt Any idea what this test logged for OCCCSCCO ?
### Response F
